The origin of these recorded values is PubChem BioAssay (NCI).

Some molecules, each annotated with its measured growth.
- Tested on: RPMI-8226 leukemia
- protocol.details: NCI-60 one-dose screen, 48 h (100 = growth as untreated, 0 = no growth, -100 = all killed)
- measurement.conditions: 10 µM unless noted
The panel holds about 83,000 compounds, 20% with a hit somewhere; the sample as a whole holds those more often.
Give the quantity in %, number only.

Given the molecule Cc1ccc2c(c1)C13C(=C2Br)CCCN1C(=O)c1ccccc13 (stereo not drawn) and test system RPMI-8226 leukemia, the measured growth is 80.4

Given the molecule `Cc1cc(S(=O)(=O)N(C)C)cc(NCC(=O)NC(=O)NCC(C)C)c1C` and test system RPMI-8226 leukemia, the measured growth is 97.4

---

- System: NCI-H460 lung
- protocol.details: NCI-60 one-dose screen, 48 h (100 = growth as untreated, 0 = no growth, -100 = all killed)
- measurement.conditions: 10 µM unless noted
This is part of a sample that, as a whole, favours compounds with a hit. Of some 83,000 tested, about 20% had one in any assay.
assay.readout: growth (%)
Give the quantity in %, number only.

Sample answers from the record:
compound	growth (%)
COc1cc(-c2nn(C(C)(C)C)cc2-c2ccnc(NCCCNS(=O)(=O)c3ccc(Cl)cc3)n2)ccc1Cl	55.1
NS(=O)(=O)c1ccc(Nc2nc(N/N=C/c3ccc(Cl)cc3)nc(Nc3ccccc3)n2)cc1	72.2
COc1c(N2CC3CCCNC3C2)c(F)cc2c(=O)c(C(=O)N/N=C/c3ccc4c(c3)OCO4)cn(C3CC3)c12 (stereo not drawn)	79.2

Consider COc1cc2c(cc1OC)C(Sc1ccc(C)cc1)c1c(nc(N)c(C#N)c1N)O2 (stereo not drawn) . Its measured growth is -54.9

Consider `CNC(=O)c1cc(-c2ccc(NC(=S)Nc3cc(C(F)(F)F)cc(C(F)(F)F)c3)cc2)nc2cccnc12` . Its measured growth is 92.1

Consider CCNC(=O)N1CCc2cc(OC)c(OCCc3ccc(OC)c(N)c3)cc2C1c1ccc(C)cc1C (stereo not drawn) . Its measured growth is 2.6

Consider `Cc1ccc(NC(=O)c2ccc(CN3CCOCC3)c(C(F)(F)F)c2)cc1Oc1ccc(-c2[nH]nc3ncnc(N)c23)cc1` . Its measured growth is 66.3

Consider `CS(=O)(=O)c1ccc(-n2cc(/C=N/O)c(-c3ccccc3)n2)cc1` . Its measured growth is 93.9

---

- Tested on: SW-620 colon
- protocol.details: NCI-60 one-dose screen, 48 h
- measurement.conditions: 10 µM unless noted
The panel holds about 83,000 compounds, 20% with a hit somewhere; the sample as a whole holds those more often. Calls of active or inactive are those of the source. Rule for the calls: active = growth percent below 10; inactive = the rest.
Give your call using only these classes: YES for active, NO for inactive

Would you please look over these solved cases?
compound	category
CC(=O)O[C@@H]1C(=O)N(c2cnccn2)[C@H]1c1ccccc1[N+](=O)[O-]	NO
Cc1cc(-c2ccc(Cl)cc2)n(Cc2nnc(SCC(=O)Nc3ccc(S(N)(=O)=O)cc3)n2C2CCCCC2)n1	NO
NS(=O)(=O)c1ccc(Nc2nc(N/N=C/CCc3ccccc3)nc(Nc3ccccc3)n2)cc1	NO
COc1ccc(-n2c(SCc3nnc(NC(=O)c4ccc(Br)cc4)s3)nc3cc(OC)c(OC)cc3c2=O)cc1	NO
CC(=O)N(C)C1CCc2c(sc(NC(=O)c3ccc(C(C)(C)C)cc3)c2C(N)=O)C1 (centres undefined)	NO

## Task Per the assay record, what outcome was assigned to `NC(N)=Nc1ccc(Oc2ccc(Nc3ccc(Cl)c(C(F)(F)F)c3)cc2)cc1` ?
## Result NO

## Task Per the assay record, what outcome was assigned to `Nc1nc(Nc2ccccc2SSc2ccccc2Nc2nc(N)nc(-c3ccc4ccccc4c3)n2)nc(-c2ccc3ccccc3c2)n1` ?
## Result NO

## Task Per the assay record, what outcome was assigned to `COc1ccc(-c2cc(-c3ccc(Cl)cc3)c(C#N)c(=O)n2Cc2ccc(C(=O)O)cc2)cc1` ?
## Result NO

## Task Per the assay record, what outcome was assigned to `NC(N)=Nc1ccc(Nc2cccc(Oc3ccc(Cl)c(C(F)(F)F)c3)c2)cn1` ?
## Result YES
